- TESTED_ON: STAT6 (Homo sapiens, UniProt P42226)
- Construct: These cells express endogenous STAT6; host or cells: HeLa LgBiT clone 4.14
- Sequence (P42226 whole entry): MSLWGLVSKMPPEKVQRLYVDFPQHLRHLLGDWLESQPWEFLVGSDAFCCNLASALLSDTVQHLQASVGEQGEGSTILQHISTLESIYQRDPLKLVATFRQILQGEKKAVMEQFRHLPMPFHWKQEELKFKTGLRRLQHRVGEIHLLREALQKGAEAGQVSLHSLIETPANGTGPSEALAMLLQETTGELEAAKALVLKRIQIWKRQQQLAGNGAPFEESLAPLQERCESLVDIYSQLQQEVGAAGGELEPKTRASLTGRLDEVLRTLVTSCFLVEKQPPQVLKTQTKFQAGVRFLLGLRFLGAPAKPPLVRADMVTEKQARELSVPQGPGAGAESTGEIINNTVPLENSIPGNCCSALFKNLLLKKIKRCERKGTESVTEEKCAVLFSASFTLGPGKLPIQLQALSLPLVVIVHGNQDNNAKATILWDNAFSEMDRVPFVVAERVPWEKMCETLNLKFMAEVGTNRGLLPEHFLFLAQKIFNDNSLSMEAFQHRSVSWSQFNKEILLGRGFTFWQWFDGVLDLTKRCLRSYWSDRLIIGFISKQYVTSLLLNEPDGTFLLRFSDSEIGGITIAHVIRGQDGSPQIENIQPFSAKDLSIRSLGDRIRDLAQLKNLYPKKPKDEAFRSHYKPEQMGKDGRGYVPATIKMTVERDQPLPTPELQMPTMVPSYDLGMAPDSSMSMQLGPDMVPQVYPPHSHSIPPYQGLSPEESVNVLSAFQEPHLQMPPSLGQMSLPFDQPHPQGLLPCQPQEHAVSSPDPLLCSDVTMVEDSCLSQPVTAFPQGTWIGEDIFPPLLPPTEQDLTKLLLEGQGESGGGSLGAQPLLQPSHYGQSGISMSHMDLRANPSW
- EXPERIMENTAL_DETAILS: Stat6 Degrader Assay (HiBiT based, HeLa LgBiT clone 4.14)
- Type: cell-based
- TEST_SETTINGS: HeLa LgBiT clone 4.14 HiBiT-STAT6, 4-24 h incubation; values given for compounds with >80% Emax; geometric mean; read-out: STAT6 degradation DC50
Simple rule here: DC50 less than 3 nM is y, otherwise n.

COMPOUND | CLASS_NAME
CNc1cc(=O)n(-c2ccnc3c2cc(CN2CCC(c4c(F)cc(C(=O)N5CCC(CN6CCN(Cc7ccc8c(c7)C(C)(C)C(=O)N8C7CCC(=O)NC7=O)C[C@@H]6C)CC5)cc4F)CC2)n3C)cc1F (stereo partly shown) [Example 3u48] | n
CNc1cc(=O)n(-c2ccnc3c2cc([C@H](C)N2CC=C(c4c(C)cc(C(=O)N5CCC(CN6CCN(c7ccc8c(c7)C7(CC7)C(=O)N8C7CCC(=O)NC7=O)C[C@@H]6C)CC5)cc4F)CC2)n3C)cc1F (stereo partly shown) [Example 3u63] | n
CNc1ccn(-c2ccnc3c2cc([C@H](C)N2CCC(c4c(F)cc(C(=O)N5CCC(CN6CCN(Cc7ccc8c(c7)C(C)(C)C(=O)N8[C@H]7CCC(=O)NC7=O)C[C@@H]6C)CC5)cc4F)CC2)n3C)c(=O)c1 (single isomer, unassigned) [Example 3u81] | y
CNc1cc(=O)n(-c2ccnc3c2cc([C@H](C)N2CC=C(c4c(C)cc(C(=O)N(C)c5ccc(N6CCC(Cc7ccc8c(c7)n(C)c(=O)n8[C@@H]7CCC(=O)NC7=O)CC6)nc5)cc4F)CC2)n3C)cc1F (single isomer, unassigned) [Example 3u243] | y
CNc1ccn(-c2ccnc3c2cc(CN2CCC(c4c(F)cc(C(=O)N5CCC(CN6CCN(Cc7ccc8c(c7)C(C)(C)C(=O)N8[C@@H]7CCC(=O)NC7=O)CC6)CC5)cc4F)CC2)n3C)c(=O)c1 (single isomer, unassigned) [Example 3u18] | n
C[C@H]1CN(Cc2ccc3c(c2)C(C)(C)C(=O)N3[C@H]2CCC(=O)NC2=O)CCN1CC1CCN(C(=O)c2ccc(C3CCN([C@@H](C)c4cc5c(-n6ccc7c(c6=O)CCN7)ccnc5n4C)CC3)cc2)CC1 (single isomer, unassigned) [Example 3u185] | y
CNc1ccn(-c2ccnc3c2cc([C@H](C)N2CC=C(c4c(C)cc(C(=O)N5CCC(CN6CCN(Cc7ccc8c(c7)C(C)(C)C(=O)N8[C@@H]7CCC(=O)NC7=O)C[C@@H]6C)CC5)cc4F)CC2)n3C)c(=O)c1 (single isomer, unassigned) [Example 3u177] | y
CNc1ccn(-c2ccnc3c2cc(CN2CCC(c4c(F)cc(C(=O)N5CCC(CN6CCN(Cc7cc8c(cc7F)N(C7CCC(=O)NC7=O)C(=O)C87CC7)CC6)CC5)cc4F)CC2)n3C)c(=O)c1 (stereo not shown) [Example 3u42] | n
CNc1cc(=O)n(-c2ccnc3c2cc([C@H](C)N2CC=C(c4c(C)cc(C(=O)N5CCC(CN6CCN(Cc7ccc8c(c7)C(C)(C)C(=O)N8[C@H]7CCC(=O)NC7=O)C[C@@H]6C)CC5)cc4F)CC2)n3C)cc1F (single isomer, unassigned) [Example 3u173] | n
CNc1cc(=O)n(-c2ccnc3c2cc([C@H](C)N2CC=C(c4c(C)cc(C(=O)N5CCC(CN6CCN(Cc7ccc8c(c7)C7(CCC7)C(=O)N8C7CCC(=O)NC7=O)C[C@@H]6C)CC5)cc4F)CC2)n3C)cc1F (stereo partly shown) [Example 3u309] | y
CNc1ccn(-c2ccnc3c2cc([C@H](C)N2CC=C(c4c(C)cc(C(=O)N5CCC(CN6CCN(Cc7cc8c(cc7F)N([C@@H]7CCC(=O)NC7=O)C(=O)C8(C)C)C[C@@H]6C)CC5)cc4F)CC2)n3C)c(=O)c1 (single isomer, unassigned) [Example 3u183] | n
CNc1cc(=O)n(-c2ccnc3c2cc([C@H](C)N2CCC(c4ccc(C(=O)N5CCC(CN6CCN(Cc7ccc8c(c7)C7(CC7)C(=O)N8[C@@H]7CCC(=O)NC7=O)C[C@@H]6C)CC5)cc4)CC2)n3C)cc1F (single isomer, unassigned) [Example 3u38] | y
CNc1cc(=O)n(-c2ccnc3c2cc([C@H](C)N2CC=C(c4c(C)cc(C(=O)N5CCC(CN6CCN(Cc7ccc8c(c7)C7(CC7)C(=O)N8[C@@H]7CCC(=O)NC7=O)C[C@@H]6C)CC5)cc4F)CC2)n3C)cc1F (single isomer, unassigned) [Example 3u100] | y
CNc1cc(=O)n(-c2ccnc3c2cc([C@H](C)N2CC=C(c4c(C)cc(C(=O)N5CCC(CN6CCN(c7ccc8c(c7)C7(CC7)C(=O)N8C7CCC(=O)NC7=O)C[C@H]6C)CC5)cc4F)CC2)n3C)cc1F (stereo partly shown) [Example 3u295] | n
C[C@H]1CN(Cc2ccc3c(c2)n(C2CC2)c(=O)n3[C@H]2CCC(=O)NC2=O)CCN1CC1CCN(C(=O)c2cc(F)c(C3CCN(Cc4cc5c(-n6ccc7c(c6=O)CCN7)ccnc5n4C)CC3)c(F)c2)CC1 (single isomer, unassigned) [Example 3u107] | y

Just for reference, patent US20250320206A1 is where these values come from.
